Test system: L2 (Normal cell)
Protocol Details: Growth inhibition of L2 normal cells
Type: cell-based
Conditions: 72 h, read-out: IC50, L2 (Normal)
Attribute Measured: IC50

Test system L2 (Normal cell); read-out IC50; what value for Cc1cccc2[se]n(CCCCCCn3[se]c4cccc(C)c4c3=O)c(=O)c12 [Hexane-(3,3'-dimethyl) selen, Hexane-(3,3′-dimethyl) selen] ?
> 10 µM

O=c1c2c(F)cccc2[se]n1CCCCCCn1[se]c2cccc(F)c2c1=O [Hexane-(2,2'-difluoro) selen, Hexane-(2,2′-difluoro) selen] ?
> 10 µM

O=c1c2ccccc2[se]n1CCCSCCCn1[se]c2ccccc2c1=O [Thioether selen] ?
> 10 µM

----------
Tested on: L2 (Normal cell)
Protocol Details: Growth inhibition of L2 normal cells
Type: cell-based
Conditions: 72 h; L2 normal cells, 3 days treatment; read-out: IC50, L2 (Normal)
Attribute Measured: IC50

Form field: reported IC50 of O=c1c2ccccc2[se]n1-c1ccccc1 [Ebselen, 2-phenylbenzoisoselenazol-3-one, reference compound]
> 10 µM

----------
Test system: A549
Protocol Details: Inhibition of growth of tumor cells, A549
Assay type: cell-based
Conditions: Homo sapiens, 72 h; A549 cells, 3 days treatment; read-out: IC50, A549
Attribute Measured: IC50

Form field: reported IC50 of O=c1c2ccccc2[se]n1-c1ccccc1 [Ebselen, 2-phenylbenzoisoselenazol-3-one, reference compound]
> 10 µM
